# TARGET_UNDER_TEST: Lysine-specific demethylase 4C (Homo sapiens, UniProt Q9H3R0)
# Sequence (Q9H3R0 whole entry, the tested form may be a part): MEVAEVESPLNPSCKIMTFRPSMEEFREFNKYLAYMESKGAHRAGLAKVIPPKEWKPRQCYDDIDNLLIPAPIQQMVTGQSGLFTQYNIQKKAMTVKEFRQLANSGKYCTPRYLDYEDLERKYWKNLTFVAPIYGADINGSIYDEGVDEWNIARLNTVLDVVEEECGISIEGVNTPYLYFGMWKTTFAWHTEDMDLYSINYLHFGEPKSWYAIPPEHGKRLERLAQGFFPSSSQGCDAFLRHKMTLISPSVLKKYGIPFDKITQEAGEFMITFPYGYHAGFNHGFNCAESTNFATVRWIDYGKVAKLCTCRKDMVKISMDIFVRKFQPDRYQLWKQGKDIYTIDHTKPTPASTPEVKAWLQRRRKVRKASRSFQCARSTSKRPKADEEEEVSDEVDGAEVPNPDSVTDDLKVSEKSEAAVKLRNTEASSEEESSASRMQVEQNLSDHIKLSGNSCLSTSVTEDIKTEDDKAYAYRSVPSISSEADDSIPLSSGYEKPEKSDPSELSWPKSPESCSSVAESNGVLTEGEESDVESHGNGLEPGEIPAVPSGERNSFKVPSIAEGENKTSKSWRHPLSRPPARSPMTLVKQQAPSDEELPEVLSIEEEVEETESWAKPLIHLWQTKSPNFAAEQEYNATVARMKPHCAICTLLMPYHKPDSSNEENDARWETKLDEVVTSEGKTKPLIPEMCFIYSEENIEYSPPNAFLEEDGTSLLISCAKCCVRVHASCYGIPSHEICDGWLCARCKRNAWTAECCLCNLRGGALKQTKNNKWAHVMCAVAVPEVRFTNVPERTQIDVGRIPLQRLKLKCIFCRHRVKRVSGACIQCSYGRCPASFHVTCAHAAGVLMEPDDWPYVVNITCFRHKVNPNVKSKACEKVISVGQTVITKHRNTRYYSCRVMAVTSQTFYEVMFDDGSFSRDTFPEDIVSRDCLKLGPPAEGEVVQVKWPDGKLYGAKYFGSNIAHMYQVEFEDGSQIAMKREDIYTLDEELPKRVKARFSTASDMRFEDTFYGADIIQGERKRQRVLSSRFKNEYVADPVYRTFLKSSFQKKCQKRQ
# TEST: Inhibition of recombinant human N-terminal GST-tagged JMJD2C (2 to 372 residues) expressed in baculovirus infected sf9 cells using H3K9me3-biotin peptide as substrate after 30 mins in presence of alpha-ketoglutaric acid by LANCE TR-FRET assay
pIC50: −log10 of the molar value.
MEASUREMENT_LABEL: pIC50

// pIC50 (Lysine-specific demethylase 4C (Homo sapiens, UniProt Q9H3R0)) for COc1ccc(-c2c(-c3cc(C(=O)O)ccn3)ncn2C)cc1 = 5.00 to 6.00

###

# TARGET_UNDER_TEST: Lysine-specific demethylase 2B (Homo sapiens)
# Sequence (Q8NHM5 whole entry, the tested form may be a part): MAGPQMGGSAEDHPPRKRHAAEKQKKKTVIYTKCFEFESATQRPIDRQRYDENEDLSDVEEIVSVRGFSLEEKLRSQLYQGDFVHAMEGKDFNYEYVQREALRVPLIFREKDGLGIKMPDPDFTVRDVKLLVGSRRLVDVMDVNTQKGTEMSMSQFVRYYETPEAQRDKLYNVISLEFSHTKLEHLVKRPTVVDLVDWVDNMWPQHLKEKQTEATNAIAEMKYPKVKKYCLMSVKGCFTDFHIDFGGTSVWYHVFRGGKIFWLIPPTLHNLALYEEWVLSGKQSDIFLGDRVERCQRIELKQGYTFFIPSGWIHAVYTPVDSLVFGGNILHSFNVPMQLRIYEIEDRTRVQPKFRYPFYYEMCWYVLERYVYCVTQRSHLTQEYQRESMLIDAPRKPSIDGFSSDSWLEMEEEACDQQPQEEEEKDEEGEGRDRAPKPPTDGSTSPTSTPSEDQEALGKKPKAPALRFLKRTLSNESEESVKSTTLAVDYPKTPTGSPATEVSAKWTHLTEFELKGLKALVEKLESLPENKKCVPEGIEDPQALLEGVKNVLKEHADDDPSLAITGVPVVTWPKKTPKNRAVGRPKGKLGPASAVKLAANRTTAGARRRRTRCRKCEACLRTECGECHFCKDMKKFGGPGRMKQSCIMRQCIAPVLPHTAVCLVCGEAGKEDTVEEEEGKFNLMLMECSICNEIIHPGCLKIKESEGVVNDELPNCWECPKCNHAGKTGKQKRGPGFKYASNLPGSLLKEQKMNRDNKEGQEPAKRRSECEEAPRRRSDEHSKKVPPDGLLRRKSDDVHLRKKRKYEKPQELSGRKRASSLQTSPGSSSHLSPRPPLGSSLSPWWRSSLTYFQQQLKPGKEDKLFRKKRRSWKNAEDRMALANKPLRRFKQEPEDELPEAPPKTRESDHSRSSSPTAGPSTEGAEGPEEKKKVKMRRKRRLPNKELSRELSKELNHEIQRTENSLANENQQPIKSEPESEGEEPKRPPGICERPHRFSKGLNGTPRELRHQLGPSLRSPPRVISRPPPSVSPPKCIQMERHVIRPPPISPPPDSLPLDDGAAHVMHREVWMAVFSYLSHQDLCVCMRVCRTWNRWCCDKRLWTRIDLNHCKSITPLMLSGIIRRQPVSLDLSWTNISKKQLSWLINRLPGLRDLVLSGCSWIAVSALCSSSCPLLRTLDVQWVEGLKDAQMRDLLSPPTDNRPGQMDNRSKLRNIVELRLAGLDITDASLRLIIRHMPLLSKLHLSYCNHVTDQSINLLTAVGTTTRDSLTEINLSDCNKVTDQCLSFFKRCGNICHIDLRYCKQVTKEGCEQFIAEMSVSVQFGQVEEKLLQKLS
# TEST: Inhibition of recombinant human C-terminal FLAG-tagged FBXL10 (1 to 650 residues) expressed in baculovirus infected sf9 cells using H3K36me2-biotin peptide as substrate after 30 mins in presence of alpha-ketoglutaric acid by AlphaScreen assay
MEASUREMENT_LABEL: IC50

Item: COc1ccc(-c2c(-c3cc(C(=O)O)ccn3)ncn2C)cc1 | IC50: 0.1 to 1 µM

###

# TARGET_UNDER_TEST: Lysine-specific demethylase 5A/5B (Homo sapiens, UniProt P29375+Q9UGL1)
# TEST: Inhibition of KDM5A/KDM5B in human ZR-75-1 cells assessed as increase in H3K4me3 level after 72 hrs by fluorometric immunoblot analysis
pIC50: −log10 of the molar value.
MEASUREMENT_LABEL: pIC50

So, COc1ccc(-c2c(-c3cc(C(=O)O)ccn3)ncn2C)cc1 ? Its pIC50 was 5.00 to 6.00

The origin of these recorded values is ChEMBL document CHEMBL4257223.
